Each entry below carries its recorded inhibition.
- measurementNotes: M. tuberculosis H37Rv growth inhibitors, H37Rv strain (AID 1626);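 also: bacteria incubated seven days before Alamar blue readout; 0% = bacteria only wells and 100% = bacteria with antibiotic wells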
- cond: stronger effect = higher value, concentration not given here
In all, about 220,000 compounds went through this assay and about 2,000 (0.91%) were called active. Another 2% or so got no clear call; they are omitted. Only a sample is shown. Potency and affinity values are given separately.
Report only the number, with the unit % understood.

Known inhibition results, listed for orientation:
>  <molecule>
O=C(c1ccccc1-n1cccc1)N1N=C(C(F)F)CC1(O)C(F)F (stereo not drawn)

>  <observed>
-5.84

$$$$
>  <molecule>
CCOP(=O)(OCC)C1(O)C(=O)Nc2ccc(Br)cc21 (stereo not drawn)

>  <observed>
0.14

$$$$
>  <molecule>
O=C(/C=C/c1ccc(Cl)c([N+](=O)[O-])c1)NCc1cccnc1

>  <observed>
2.22

$$$$
>  <molecule>
O=C(/C=C/c1ccc(Cl)c([N+](=O)[O-])c1)Nc1cccnc1

>  <observed>
-11.5

$$$$
>  <molecule>
Cc1cc(C)n2nc(N)c(N=Nc3cccc(Cl)c3)c2n1

>  <observed>
79.8

$$$$

I am curious: what inhibition value has been reported for O=C(CSc1nnc(NC(=O)Cc2ccccc2)s1)NCc1ccco1 ?
-1.92

I am curious: what inhibition value has been reported for COc1ccc(-c2noc(CCC(=O)Nc3cccc(C)c3)n2)cc1 ?
78.2

----------
- measurementNotes: M. tuberculosis H37Rv growth inhibitors, H37Rv strain (AID 1626);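 also: bacteria incubated seven days before Alamar blue readout; 0% = bacteria only wells and 100% = bacteria with antibiotic wells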
- cond: stronger effect = higher value, concentration not given here
Out of some 220,000 compounds screened, about 2,000 (0.91%) were called active. Not shown: some 2% with an inconclusive outcome. A selection follows. Results with a measured potency or affinity are listed apart.
metricName: inhibition (%)
Report only the number, with the unit % understood.

Known inhibition results, listed for orientation:
>  <molecule>
CCOC(=O)C(CC)Sc1ncnc2c1nnn2-c1ccc(F)cc1 (centres undefined)

>  <inhibition, %>
10.4

$$$$
>  <molecule>
COc1ccc(-n2nnnc2SCC(=O)Nc2nc3c(s2)CCCC3)cc1

>  <inhibition, %>
-4.11

$$$$
>  <molecule>
O=c1cc(CSCc2ccc(Cl)cc2)[nH]c(=O)[nH]1

>  <inhibition, %>
7.09

$$$$
>  <molecule>
COc1cccc(NC(C(=O)Nc2cccc(C(C)=O)c2)c2ccccc2)c1 (centres undefined)

>  <inhibition, %>
6.16

$$$$
>  <molecule>
Cc1ccccc1/C=C1\CCCc2ccccc2C1=O

>  <inhibition, %>
5.73

$$$$
>  <molecule>
CCN(CC(=O)Nc1ccc(NC(C)=O)cc1)CC(=O)Nc1ccccc1C(=O)c1ccccc1

>  <inhibition, %>
2.54

$$$$

I am curious: what inhibition value has been reported for Cc1nn(C(=O)c2cccc([N+](=O)[O-])c2)c(C)c1Sc1ccccc1 ?
0.41

I am curious: what inhibition value has been reported for COc1ccc(/C=C2\SC(c3ccc(C)cc3)=NC2=O)cc1OC ?
-10.8

I am curious: what inhibition value has been reported for O=C(Cn1c(=O)n(-c2ccccc2)c(=O)c2sccc21)NCc1ccccc1 ?
-8

----------
- measurementNotes: M. tuberculosis H37Rv growth inhibitors, H37Rv strain (AID 1626);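 also: bacteria incubated seven days before Alamar blue readout; 0% = bacteria only wells and 100% = bacteria with antibiotic wells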
- cond: stronger effect = higher value, concentration not given here
The campaign covered roughly 220,000 compounds. About 2,000 (0.91%) were called active. Another 2% or so got no clear call; they are omitted. These entries were drawn from the full list. Measured potencies and affinities stand elsewhere.
Each entry below carries its recorded inhibition.
Report only the number, with the unit % understood.

>  <compound>
COc1c(C)cc(Br)cc1C(=O)Nc1ccccc1N1CCN(C(=O)c2ccccc2)CC1

>  <observed>
19.8

$$$$

I am curious: what inhibition value has been reported for CCOC(CNc1c([N+](=O)[O-])c(=O)n(C)c(=O)n1C)OCC ?
3.27

I am curious: what inhibition value has been reported for COCCCn1c(SCc2ccc(OC)cc2)nc2cc(OC)c(OC)cc2c1=N ?
1.79

I am curious: what inhibition value has been reported for O=S(=O)(c1ccc(-n2cnnn2)cc1)N1CCC(N2CCCCC2)CC1 ?
0.43

I am curious: what inhibition value has been reported for CCOC(=O)Cc1csc(NC(=O)c2cc3c(s2)CCCC3)n1 ?
6.6

I am curious: what inhibition value has been reported for COc1ccc(Cc2nnc(NC(=O)c3cccc([N+](=O)[O-])c3)s2)cc1 ?
1.81

I am curious: what inhibition value has been reported for COc1ccc(-c2cc(C(=O)NC3CCCC3)no2)cc1OC ?
9.4

I am curious: what inhibition value has been reported for Cc1[nH]c2ccc(C(=O)OCCN(C)C)cc2c1C ?
-4.75

I am curious: what inhibition value has been reported for c1ccc(Oc2nc(-c3cccnc3)nc3ccccc23)cc1 ?
8.16

I am curious: what inhibition value has been reported for CC(NC(=O)c1ccc(F)cc1)c1ccc2c(c1)CCCC2 (stereo not given) ?
1.58

I am curious: what inhibition value has been reported for CCOc1ccc(CC(=NCCc2ccccc2)C2=C(O)CC(C)(C)CC2=O)cc1OCC ?
6.31

I am curious: what inhibition value has been reported for COCCCn1c(SCc2ccccc2)nc2cc(OC)c(OC)cc2c1=N ?
0.99

I am curious: what inhibition value has been reported for Cc1nc2ccccn2c1C(=O)NCc1cccnc1 ?
-10.5

I am curious: what inhibition value has been reported for N#Cc1c(-c2ccc(Cl)cc2Cl)nc2n(c1=O)CCS2 ?
-1.19

I am curious: what inhibition value has been reported for CC(C)Cc1nnc(NS(=O)(=O)Cc2ccccc2)s1 ?
3.7

I am curious: what inhibition value has been reported for CC(C)(C)c1ccc(C(=O)OCCNC(=O)c2c(Cl)nc3ccccn23)cc1 ?
-10.6

I am curious: what inhibition value has been reported for CC[C@@H](CO)C1CC2NC3CC4(c5ccccc5N(C)[C@@H]24)C(O)C31 (stereo not given in full) ?
-2.7

I am curious: what inhibition value has been reported for CN(CCC(=O)Nc1ccc2c(c1)OCO2)Cc1ccccc1 ?
-7.11
